tgt: UniProt:P49760
Sequence (P49760 whole entry): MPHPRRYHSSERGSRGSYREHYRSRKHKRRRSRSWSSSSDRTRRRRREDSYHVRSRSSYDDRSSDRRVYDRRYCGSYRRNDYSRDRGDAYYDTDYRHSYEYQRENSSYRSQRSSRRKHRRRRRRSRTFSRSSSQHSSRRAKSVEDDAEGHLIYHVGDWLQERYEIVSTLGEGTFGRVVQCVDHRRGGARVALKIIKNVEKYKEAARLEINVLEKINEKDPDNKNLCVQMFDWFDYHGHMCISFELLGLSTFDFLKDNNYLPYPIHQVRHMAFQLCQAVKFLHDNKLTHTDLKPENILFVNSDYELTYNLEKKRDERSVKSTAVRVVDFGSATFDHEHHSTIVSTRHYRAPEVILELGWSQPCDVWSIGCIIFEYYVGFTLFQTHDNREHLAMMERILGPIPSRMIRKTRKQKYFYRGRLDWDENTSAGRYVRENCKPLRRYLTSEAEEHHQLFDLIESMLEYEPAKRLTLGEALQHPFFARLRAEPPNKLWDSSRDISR
assay-details: biochemical
condition-context: read-out: CLK2 (% Inh.), % inhibition at 3 μM
Listed here are molecules together with their documented inhibition at 3 µM.
API: value field is a number in %; no unit string.

Name the recorded inhibition at 3 µM for Cc1nc2ccc(-c3c[nH]c4nc(Nc5cnn(CC(C)(C)O)c5Cl)nc(OC5CCCC5)c34)cc2o1 .
100

Request: CNC(=O)c1ccc(Nc2nc(OC3CCOCC3)c3c(-c4ccc5nc(C)oc5c4)c[nH]c3n2)c(OC(F)(F)F)c1
103

Request: CNC(=O)c1ccc(Nc2nc(OC3CCCC3)c3c(-c4ccc(O)cc4)c[nH]c3n2)c(C(C)C)c1
94

Request: COc1cc(C(=O)NCCO)ccc1Nc1nc(OC(C)C)c2c(-c3ccc4nc(C)oc4c3)c[nH]c2n1
108

Request: Cc1nc2ccc(-c3c[nH]c4nc(Nc5cnn(C6CCOCC6)c5Cl)nc(OC5CCCC5)c34)cc2o1
100

----------
Listed here are compounds together with their documented pIC50.
Test system: breast cancer cell lines
assay-details: cells
condition-context: Homo sapiens, HCC1954, 96 h, read-out: Growth Inhibition IC50
FYI, pIC50 means -log10 of a concentration in mol per litre.

compound	tgt	value-type	endpoint-value
CNC(=O)c1ccc(Nc2nc(OC3CCCC3)c3c(-c4ccc(O)cc4)c[nH]c3n2)c(OC)c1 [Compound 3]	breast cancer cell lines	pIC50	6.32

Name the recorded pIC50 for CNC(=O)c1ccc(Nc2nc(OC(C)C)c3c(-c4ccc5nc(C)oc5c4)c[nH]c3n2)c(OC)c1 [Compound 125] .
7.17

----------
tgt: CLK1 (Homo sapiens (Human), UniProt P49759)
Sequence (P49759 whole entry): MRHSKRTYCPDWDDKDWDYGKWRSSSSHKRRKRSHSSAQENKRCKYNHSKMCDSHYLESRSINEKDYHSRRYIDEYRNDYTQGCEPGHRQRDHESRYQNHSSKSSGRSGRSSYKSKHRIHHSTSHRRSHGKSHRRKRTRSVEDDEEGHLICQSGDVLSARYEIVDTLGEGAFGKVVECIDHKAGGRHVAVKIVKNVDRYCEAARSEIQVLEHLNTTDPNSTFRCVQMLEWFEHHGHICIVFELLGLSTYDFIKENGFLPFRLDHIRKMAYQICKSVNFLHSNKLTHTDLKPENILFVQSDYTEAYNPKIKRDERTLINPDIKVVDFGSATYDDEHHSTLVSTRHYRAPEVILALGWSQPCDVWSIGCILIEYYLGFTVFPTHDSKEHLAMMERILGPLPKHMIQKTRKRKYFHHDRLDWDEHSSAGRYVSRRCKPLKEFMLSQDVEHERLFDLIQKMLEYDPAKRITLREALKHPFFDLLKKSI
value-type: pIC50
FYI, pIC50 means -log10 of a concentration in mol per litre.

Notebook: pull reported pIC50 for CLK1 (Homo sapiens (Human), UniProt P49759), entry CNC(=O)c1ccc(-c2c[nH]c3nc(Nc4ccc(C(=O)NC5CN(C)C5)cc4OC)nc(OC4CCC(C)(O)CC4)c23)cc1 (stereo not shown) [Compound 349]
7.23

----------
Tested on: breast cancer cell lines
assay-details: cells
condition-context: Homo sapiens, HCC70, 96 h, read-out: Growth Inhibition IC50
Listed here are compounds together with their documented pIC50.
FYI, pIC50 means -log10 of a concentration in mol per litre.

compound	value-type	endpoint-value
CNC(=O)c1ccc(Nc2nc(OC3CCCC3)c3c(-c4ccc(O)cc4)c[nH]c3n2)c(OC)c1 [Compound 3]	pIC50	5.71

We next turn to a different compound, shown below.
Notebook: pull reported pIC50 for breast cancer cell lines, entry CNC(=O)c1ccc(Nc2nc(OC(C)C)c3c(-c4ccc5nc(C)oc5c4)c[nH]c3n2)c(OC)c1 [Compound 125]
6.57

----------
Tested on: breast cancer cell lines
assay-details: cells
condition-context: Homo sapiens, UACC-812, 96 h, read-out: Growth Inhibition IC50
value-type: pIC50
FYI, pIC50 means -log10 of a concentration in mol per litre.

cpd-smiles	pIC50
CNC(=O)c1ccc(Nc2nc(OC3CCCC3)c3c(-c4ccc(O)cc4)c[nH]c3n2)c(OC)c1	5.75

We next turn to a different compound, shown below.
Name the recorded pIC50 for CNC(=O)c1ccc(Nc2nc(OC(C)C)c3c(-c4ccc5nc(C)oc5c4)c[nH]c3n2)c(OC)c1 .
6.53
